System: LOX IMVI melanoma
Protocol: NCI tumour cell line growth inhibition, 48 h
The compounds listed here are annotated with their GI50.
Parameter measured: GI50

* COc1cccc(-c2nc3sccn3c2-c2ccnc(NCCCNS(=O)(=O)c3ccccc3)c2)c1 | 3.12 µM
* Cc1cc(S(N)(=O)=O)c(S/C(=N\NS(=O)(=O)c2ccccc2)c2ccc(Cl)cc2)cc1Cl | > 100 µM
* CCOC(=O)[C@@H]1CSC(CC)=C(C(=O)O)N1 | > 100 µM
* CCOC(=O)/C(=C\c1ccc2ccccc2c1)P(=O)(OCC)OCC | 1.58 µM
* CCCCCC[C@H]1C(=O)O[C@H](C)[C@H](NC(=O)c2cccc(NC=O)c2OC)C(=O)O[C@@H](C)[C@@H]1OC(=O)CCC (tested in a mixture with another compound) | 8.67 µM
* CC1(C)C2CCC13C(=O)C1OC3(C2)C2C(=O)c3c(ccc4c3ccc3ccccc34)C(=O)C12 (stereo not drawn) | 50.9 µM
* COc1ccc(/C=C/C(=O)c2cc3c(N)c(C(=O)Nc4ccc(OC)cc4)sc3nc2C)cc1 | 1.06 µM
* C#C[C@]1(O)CC[C@H]2[C@@H]3CC=C4c5nc(N)sc5CC[C@]4(C)[C@H]3CC[C@@]21C | 1.92 µM

----------
The molecules listed here are annotated with their TGI.
Tested on: T-47D breast
Protocol: NCI tumour cell line growth inhibition, 48 h
Parameter measured: TGI

• CC(=O)[C@H]1[C@H](O)C[C@@]2(C)[C@@H]3CCc4cc(O)c(OC5OC(CO)C(O)C(O)C5O)cc4C3(C)C(=O)C[C@]12C (stereo partly drawn) = > 100 µM
• COc1ccc(-c2cc(/C=C/C(=O)c3ccc(N)cc3)[nH]n2)cc1 = 9.77 µM
• C1CCCN(NC2=NCCO2)CC1 = > 100 µM

----------
Test system: BT-549 breast
Protocol: NCI tumour cell line growth inhibition, 48 h; in the data active means GI50 below about 0.43 µM; inactive means the rest
Outcomes: active, inactive

- CN(C)c1ccc(-c2ccc(-c3ccc(C(=N)N)cn3)o2)cc1: inactive
- O=CN1N=C(c2cccc(Nc3ccnc4cc(Cl)ccc34)c2)CC1c1ccc(Cl)cc1 (centres undefined): inactive
- Cc1cc(NN=C(c2ccc(O)cc2)c2ccc(O)cc2)c([N+](=O)[O-])cc1[N+](=O)[O-]: inactive
- COc1cc(/C=C2\SC(N3CCCCC3)=NC2=O)ccc1OCCCCCCOc1ccc(/C=C2\SC(N3CCCCC3)=NC2=O)cc1OC: inactive
- COc1ccc2c(c1OC)O/C(=C\c1ncc([N+](=O)[O-])n1C)C2=O: inactive
- CC1(C)N=C(N)N=C(N)N1c1cccc(CCc2ccccc2)c1: inactive
- C[C@@H]1CCc2ncc(F)cc2[C@H]2CCCN2c2ccn3ncc(c3n2)C(=O)N1: inactive
- Cc1cc(S(N)(=O)=O)c(S/C(=N\NS(=O)(=O)c2ccccc2)c2ccc(Cl)cc2)cc1Cl: inactive
- CS(=O)(=O)Nc1cc(-c2ccc3ncnc(Nc4cccc(Cl)c4)c3c2)cnc1Cl: active

----------
System: HOP-92 NSCLC
Protocol: NCI tumour cell line growth inhibition, 48 h
Parameter measured: TGI (µM)

* C=CC(=O)Nc1cc2c(Nc3ccc(F)c(Cl)c3)ncnc2cc1C#CC(C)(C)N1CCN(C)CC1 | 1.78
* COC(=O)c1ccc2c(c1)CC1(C2)Cc2ccccc2C1=O (stereo not given) | 82.9
